target: UniProt:Q14957; assay: Two-electrode voltage-clamp recordings from Xenopus laevis oocytes, GluN2C; conditions: Table 2; glutamate 100 μM, glycine 30 μM; Hill fit; read-out: IC50 Glu N2C
Sequence (Q14957 20-1233, other chains not shown): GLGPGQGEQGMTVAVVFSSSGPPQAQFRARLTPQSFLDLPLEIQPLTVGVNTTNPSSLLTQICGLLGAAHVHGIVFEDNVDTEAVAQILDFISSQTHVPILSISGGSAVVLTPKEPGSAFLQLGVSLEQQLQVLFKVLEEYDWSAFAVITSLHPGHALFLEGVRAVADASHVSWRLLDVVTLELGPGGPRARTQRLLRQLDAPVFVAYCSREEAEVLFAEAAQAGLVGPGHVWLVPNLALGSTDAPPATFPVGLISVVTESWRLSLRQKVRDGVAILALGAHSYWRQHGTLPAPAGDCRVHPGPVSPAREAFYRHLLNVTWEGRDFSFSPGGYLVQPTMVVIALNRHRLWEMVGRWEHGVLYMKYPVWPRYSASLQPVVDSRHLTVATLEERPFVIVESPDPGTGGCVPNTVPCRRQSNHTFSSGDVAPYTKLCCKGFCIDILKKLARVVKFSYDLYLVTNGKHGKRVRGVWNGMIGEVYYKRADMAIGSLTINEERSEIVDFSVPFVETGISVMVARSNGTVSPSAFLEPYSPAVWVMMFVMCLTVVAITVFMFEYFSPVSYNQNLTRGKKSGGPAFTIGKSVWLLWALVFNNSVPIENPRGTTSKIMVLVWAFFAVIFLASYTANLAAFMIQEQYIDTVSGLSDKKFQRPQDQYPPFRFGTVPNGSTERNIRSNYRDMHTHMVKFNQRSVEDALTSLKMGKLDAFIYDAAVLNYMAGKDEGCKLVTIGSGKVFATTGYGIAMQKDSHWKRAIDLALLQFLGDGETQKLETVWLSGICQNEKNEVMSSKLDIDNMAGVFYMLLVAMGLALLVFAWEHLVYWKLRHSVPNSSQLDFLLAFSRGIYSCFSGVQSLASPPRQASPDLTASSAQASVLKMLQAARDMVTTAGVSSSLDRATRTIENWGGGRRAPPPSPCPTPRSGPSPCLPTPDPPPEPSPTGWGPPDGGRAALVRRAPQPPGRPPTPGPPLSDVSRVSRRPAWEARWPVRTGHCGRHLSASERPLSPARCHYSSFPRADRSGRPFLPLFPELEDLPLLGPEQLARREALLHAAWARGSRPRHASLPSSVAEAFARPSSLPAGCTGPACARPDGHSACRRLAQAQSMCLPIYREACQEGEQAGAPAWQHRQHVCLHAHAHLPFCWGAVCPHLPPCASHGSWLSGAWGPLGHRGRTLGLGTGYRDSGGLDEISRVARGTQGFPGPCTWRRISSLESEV
pIC50: −log10 of the molar value.
measured_metric: pIC50

1) Cc1sc2ncn(CC(=O)N3CCCCC3)c(=O)c2c1-c1ccc(Cl)cc1 [1 / 4-Cl—Ph / Me / —Npiperidine]	3.87
2) Cc1sc2ncn(CC(=O)c3cccs3)c(=O)c2c1-c1cccc(Cl)c1 [1 / 3-Cl—Ph / Me / 2-thiophene]	4.72
3) Cc1sc2ncn(CC(=O)N3CCCCC3)c(=O)c2c1-c1cc(C(F)(F)F)cc(C(F)(F)F)c1 [1 / 3,5-CF3—Ph / Me / —Npiperidine]	5.85
